These data points were gathered from PubChem BioAssay (NCATS).

Each entry below lists one item and its recorded caspase-3 activation value.
assay: Cellular Toxicity (caspase-3) Jurkat (AID 655); settings: Jurkat caspase-3 activation, luminescence, DMSO = 0%, tamoxifen = 100%; at 92.2 µM (top of the series);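 further: cells exposed to compound for 16 h at 37 °C before reading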
Results filed as inconclusive are left out. Active and inactive are the calls of the source. The call rests on the fitted dose curve; in most records, active means well fitted activation curve with a large enough effect; inconclusive means small, poorly fitted or top-dose-only effect; inactive means flat fitted curve, though single readings scatter.
property.measured: caspase-3 activation

>>> result("CCCCOC(=O)c1ccccc1C(=O)OCCCC")
"-1.56% (inactive)"
>>> result("Nc1ccc(Br)cc1")
"5.03% (inactive)"
>>> result("O=NN(c1ccccc1)c1ccccc1")
"3.48% (inactive)"
>>> result("S=C=Nc1cccc2ccccc12")
"1.77% (inactive)"
>>> result("O=[N+]([O-])c1cccc2ccccc12")
"-1.75% (inactive)"
>>> result("Brc1ccccc1")
"-1.45% (inactive)"
>>> result("Cc1ccc2ccccc2c1")
"1.17% (inactive)"
>>> result("C[N+](C)(C)Cc1ccccc1")
"0.448% (inactive)"

---

experiment: Primary qHTS to identify inhibitors of SARS-CoV-2 cell entry (AID 1645846); details: SARS-CoV-2 pseudovirus cell entry assay, luminescence; at 57.1 µM (top of the series) unless noted; further: nearly all actives have a fitted effect of over 45% in size
Inconclusive results are not listed.
# maps each entry to its activity change, negative = inhibition
property.measured: activity change, negative = inhibition (%)

>>> numeric_value("CCOc1cc(C(CS(C)(=O)=O)N2C(=O)c3cccc(NC(C)=O)c3C2=O)ccc1OC (stereo not drawn)")
-21.8
>>> numeric_value("COc1ccc(N(C)c2nc(C)nc3ccccc23)cc1")
-80.5
>>> numeric_value("CCC(=O)NC[C@H](Cc1ccc(OCCc2nc(-c3ccccc3)oc2C)cc1)N/C(C)=C\\C(=O)c1ccc(C(F)(F)F)cc1")
-18.7

---

biological target: Rap guanine nucleotide exchange factor 3 (Homo sapiens); assay: Counterscreen qHTS for antagonist of cAMP-regulated guanine nucleotide exchange factor 3 (EPAC1) (AID 1645888); details: Rap1B-BODIPY-GDP nucleotide exchange, fluorescence; series mostly up to 154 µM;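 further: fluorescence loss as bound BODIPY-GDP is released from Rap1B; % of control where 0% means no effect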
Results filed as inconclusive are left out. Activity calls are given as the source filed them. Calls come from the whole dose curve; as a rule, active = well fitted inhibition curve with a large enough effect; inconclusive = small, poorly fitted or top-dose-only effect; inactive = no such curve, though single readings can be large or run the other way.
property.measured: activity change, negative = inhibition

>>> result("COc1ccccc1-n1c(-c2cccs2)nc2ccccc2c1=O")
"inactive"
>>> result("O=[N+]([O-])c1ccc(N(CCO)CCO)c2c1no[n+]2[O-]")
"inactive"
>>> result("O=C1NC(=O)N(Cc2ccccc2)C(=O)/C1=C\\c1ccco1")
"0.623% [at 30.8 µM] (inactive)"
>>> result("CCOC(=O)[C@]12Cc3ccccc3[C@H]1N(Cc1ccccc1)C(=O)c1cc(OC)ccc12")
"2.15% [at 30.8 µM] (inactive)"
>>> result("COC(=O)N1C(c2ccccc2)C1c1ccccc1 (stereo not given)")
"4.2% [at 30.8 µM] (inactive)"

---

assay: Cell Viability - LYMP2-003 (AID 965); settings: LYMP2-003 lymphoblastoid cell viability; series mostly up to 92.2 µM;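 further: cells exposed to compounds for 24 h before reading; nearly all actives have a fitted effect of over 50% in size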; further: potency means the concentration at half of the fitted maximal effect
Inconclusive results are not listed. Calls of active or inactive are those of the source. Calls follow the shape of the dose curve; as a rule, active = well fitted cell-killing curve with a large enough effect; inconclusive = small, poorly fitted or top-dose-only effect, or effect the other way; inactive = flat fitted curve, though single readings scatter.
property.measured: Potency

>>> result("c1ccc(OP(Oc2ccccc2)Oc2ccccc2)cc1")
"inactive"
>>> result("CC(C)(OO)c1ccccc1")
"50.1 µM (active)"
>>> result("O=C(O)COc1ccc(Cl)cc1Cl")
"inactive"
>>> result("c1ccc(N=Nc2ccccc2)cc1")
"inactive"
>>> result("O=[N+]([O-])c1cccc2ccccc12")
"inactive"
>>> result("O=C1C(Cl)=C(Cl)C(=O)C(Cl)=C1Cl")
"20 µM (active)"
